studyTarget: Orexin receptor type 2 (Homo sapiens)
Sequence (O43614 whole entry): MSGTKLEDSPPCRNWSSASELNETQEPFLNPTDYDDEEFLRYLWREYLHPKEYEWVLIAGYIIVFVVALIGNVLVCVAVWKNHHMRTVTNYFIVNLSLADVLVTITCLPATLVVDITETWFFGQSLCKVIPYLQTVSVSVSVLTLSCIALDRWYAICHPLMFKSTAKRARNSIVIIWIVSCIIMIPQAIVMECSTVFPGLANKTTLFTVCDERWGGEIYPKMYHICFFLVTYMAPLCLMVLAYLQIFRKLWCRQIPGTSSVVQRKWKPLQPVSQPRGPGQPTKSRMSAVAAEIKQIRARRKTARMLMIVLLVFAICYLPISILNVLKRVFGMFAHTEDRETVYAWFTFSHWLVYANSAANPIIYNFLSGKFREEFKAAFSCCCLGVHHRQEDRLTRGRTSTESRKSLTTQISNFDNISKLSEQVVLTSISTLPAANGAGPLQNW
assayExplanation: Agonist activity at human OX2 receptor overexpressed in CHO-RD-HGA16 cells assessed as calcium mobilization after 15 mins by fluorescence assay
Where a SMILES comes first, the peptide text is derived from it.
measurementLabel: pEC50
Give bare numbers, as −log10 of the molar value.

Examples from the recorded data:
molecule	studyTarget	readoutValue
CC[C@H](C)[C@H](NC(=O)CNC(=O)[C@H](C)NC(=O)[C@H](C)NC(=O)[C@H](Cc1cnc[nH]1)NC(=O)[C@H](CC(N)=O)NC(=O)CNC(=O)[C@H](C)NC(=O)CNC(=O)[C@H](Cc1cnc[nH]1)NC(=O)[C@H](CC(C)C)NC(=O)[C@@H](CC(C)C)NC(=O)[C@H](CCC(=O)O)NC(=O)[C@@H](N)Cc1ccc(O)cc1)C(=O)N[C@@H](CC(C)C)C(=O)N[C@H](C(=O)N[C@@H](CC(C)C)C(N)=O)[C@@H](C)O	Orexin receptor type 2 (Homo sapiens)	6.58
CC[C@H](C)[C@H](NC(=O)CNC(=O)[C@H](C)NC(=O)[C@H](C)NC(=O)[C@H](Cc1cnc[nH]1)NC(=O)[C@H](CC(N)=O)NC(=O)CNC(=O)[C@H](C)NC(=O)CNC(=O)[C@H](Cc1cnc[nH]1)NC(=O)[C@H](CC(C)C)NC(=O)[C@H](CC(C)C)NC(=O)[C@H](CCC(=O)O)NC(=O)[C@H](Cc1ccc(O)cc1)NC(=O)[C@H](CC(C)C)NC(=O)[C@@H](N)CCCNC(=N)N)C(=O)N[C@@H](CC(C)C)C(=O)N[C@H](C(=O)N[C@@H](CC(C)C)C(N)=O)[C@@H](C)O (H-RLYELLHGAGNHAAGILTL-NH2)	Orexin receptor type 2 (Homo sapiens)	6.01

Please turn your attention to the following entry.
Request: Look at this molecule and give its reported pEC50. CC[C@H](C)[C@H](NC(=O)CNC(=O)[C@H](C)NC(=O)[C@H](C)NC(=O)[C@H](Cc1cnc[nH]1)NC(=O)[C@H](CC(N)=O)NC(=O)CNC(=O)[C@H](C)NC(=O)CNC(=O)[C@@H]1CCCN1C(=O)[C@H](CC(C)C)NC(=O)[C@H](CC(C)C)NC(=O)[C@H](CCC(=O)O)NC(=O)[C@@H](N)Cc1ccc(O)cc1)C(=O)N[C@@H](CC(C)C)C(=O)N[C@H](C(=O)N[C@@H](CC(C)C)C(N)=O)[C@@H](C)O (H-YELLPGAGNHAAGILTL-NH2)
Response: 5.70

Where these numbers come from: ChEMBL document CHEMBL3102805
